Target: High affinity choline transporter 1 (Homo sapiens) (UniProt Q9GZV3)
Sequence (Q9GZV3 whole entry, looked up): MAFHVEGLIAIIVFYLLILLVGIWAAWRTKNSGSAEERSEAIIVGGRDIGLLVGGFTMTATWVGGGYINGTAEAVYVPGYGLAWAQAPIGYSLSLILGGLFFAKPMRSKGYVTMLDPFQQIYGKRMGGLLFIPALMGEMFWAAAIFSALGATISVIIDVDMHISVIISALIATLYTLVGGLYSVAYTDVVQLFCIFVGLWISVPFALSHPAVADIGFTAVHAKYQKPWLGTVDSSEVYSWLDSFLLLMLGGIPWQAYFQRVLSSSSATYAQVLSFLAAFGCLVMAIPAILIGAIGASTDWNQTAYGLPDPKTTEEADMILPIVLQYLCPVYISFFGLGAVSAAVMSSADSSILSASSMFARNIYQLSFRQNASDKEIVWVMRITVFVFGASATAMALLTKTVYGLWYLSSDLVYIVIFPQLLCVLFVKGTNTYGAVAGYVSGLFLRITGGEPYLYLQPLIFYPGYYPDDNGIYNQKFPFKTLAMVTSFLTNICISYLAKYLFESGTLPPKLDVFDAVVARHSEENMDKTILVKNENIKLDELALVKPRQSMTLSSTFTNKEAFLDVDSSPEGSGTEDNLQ
Test: inhibitors of human choline transporter CHT (AID 488975);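 for B-score: choline stimulus applied at its EC90 after an EC20 pre-addition; B-score computed on integrated fluorescence ratio after choline addition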
Conditions: CHT-expressing cells, membrane potential dye, choline response, at 10 µM; stronger effect = lower value
About 2,600 (0.84%) of roughly 310,000 compounds were called active. What follows is part of a selection rich in actives, with near analogues and random picks from the rest.
Assay Readout: B-score

- Smiles Data: "COCCn1c(CN(Cc2ccccc2)Cc2ccccc2)nc2c1c(=O)n(C)c(=O)n2C"
  Recorded Result: "inactive"
- Smiles Data: "COc1ccccc1/C=N/Nc1nc(C)c(C(C)=O)s1"
  Recorded Result: "inactive"
- Smiles Data: "CCS(=O)(=O)C1=NSC2=NC(=O)/C(=C\\c3ccc(OS(=O)(=O)c4ccccc4)cc3)C(=N)N21"
  Recorded Result: "-7.46 (active)"
- Smiles Data: "O=C(NCC1(N2CCCCC2)CCCCC1)c1ccc(NS(=O)(=O)c2ccc(F)cc2)cc1"
  Recorded Result: "inactive"
- Smiles Data: "CCN1C(=O)[C@@H]2[C@@H](c3ccc(-c4ccc(OC)cc4)c(OC)c3)N3CCC[C@@]3(C(=O)OC)[C@@H]2C1=O"
  Recorded Result: "inactive"
- Smiles Data: "CC(C)(C)c1ccc(C(=O)CSc2ncn[nH]2)cc1"
  Recorded Result: "-5 (active)"
- Smiles Data: "CCN1C(=O)[C@H]2[C@@H](c3ccc(SC4CCCCC4)c(OC)c3)N[C@@](Cc3ccccc3)(C(=O)OC)[C@H]2C1=O"
  Recorded Result: "inactive"
- Smiles Data: "CCN1C(=O)[C@H]2[C@@H](c3ccc(-c4ccc(OC)cc4)cc3)N[C@@](Cc3ccccc3)(C(=O)OC)[C@H]2C1=O"
  Recorded Result: "inactive"
- Smiles Data: "CC(C)Cn1c(CN(Cc2ccccc2)Cc2ccccc2)nc2c1c(=O)n(C)c(=O)n2C"
  Recorded Result: "inactive"
